# System: Plasmodium berghei
# assay_protocol: Screen against P. berghei liver stage (PbLuc), transformed with Luciferase, at 10uM
# Type: functional, HepG2
# experimental_setup: tested at 10 uM
In all, about 69,000 compounds went through this assay and about 8,600 (12%) showed an effect of 50% or more. Shown is part of a subset that was picked to be rich in strong results.
parameter_measured: INHIBITION (%)
Write the answer as a number in %, unit excluded.

# INHIBITION of CCCN1CCN(C(=O)c2cncnc2C)[C@H]2CS(=O)(=O)C[C@H]21 = 51.2

# INHIBITION of Cn1cnnc1SCC(=O)N1C[C@@H]2CC[C@H]1CN(Cc1cccnc1)C2 = 6.28

# INHIBITION of CCCS(=O)(=O)NCC(C)c1ccc(F)c(F)c1 (stereo unspecified) = 10

# INHIBITION of c1cnc(Nc2cc(CCC3CCCNC3)ccn2)cn1 (stereo unspecified) = -26.2

# INHIBITION of CCCOc1cc(C)ccc1NC(=O)N(C)C = 24.2

# INHIBITION of CCc1cc(NC2CCC(O)CC2)n2nc(C)c(C)c2n1 (stereo unspecified) = 25.1

# INHIBITION of COCC1N(C(=O)Nc2ccccc2)C2CCC1(O)CC2 (stereo unspecified) = 8.61

# INHIBITION of CC(C)(C)c1nc(CC(=O)NCCC(=O)Nc2ccncc2)cs1 = 45.4

# INHIBITION of COc1ccccc1OCCCN1CCNC1=O = 12.9

# INHIBITION of CC(=O)N1CCCC(c2nnc3n2CCN(C(=O)C2CCCCC2)C3)C1 (stereo unspecified) = 33.39

# INHIBITION of CC(C)(C)c1nc(CC(=O)Nc2cnccc2O)cs1 = 52.5
